% activity 100 uM reference
Molecular target: Human recombinant SIRT6 (Homo sapiens)
Construct: six-histidine (His6); made in house; host or cells: Escherichia coli BL21
Assay: SIRT6 enzymatic activity assay (fluorogenic de-myristoylation of histone H3 peptide-AMC, trypsin-coupled)
Format: biochemical
Conditions: Table 2; compound 100 uM; percentage of signal increase relative to control wells
measured attribute: % activity 100 uM

INSERT INTO measurements (compound, system_under_test, measured_attribute, data_value) VALUES
  ('CCc1nc(-c2ccccc2)c2cc(Cl)ccc2n1', 'Human recombinant SIRT6 (Homo sapiens)', '% activity 100 uM', '428%'),
  ('C=C(Nc1ccc(CCC)cc1)C1=C(C)c2c(nc(C)nc2N(C)c2ccc(C(C)C)cc2)C1', 'Human recombinant SIRT6 (Homo sapiens)', '% activity 100 uM', '54%'),
  ('Cc1nc2sc(-c3nc4ccccc4[nH]3)c(N)c2c(C)c1Cl', 'Human recombinant SIRT6 (Homo sapiens)', '% activity 100 uM', '59%'),
  ('CCN1CCCC1CNC(=O)C1CCN(c2cc(C)nc3c(-c4ccc(Cl)cc4)c(C)nn23)CC1 (stereo not shown)', 'Human recombinant SIRT6 (Homo sapiens)', '% activity 100 uM', '29%'),
  ('Cc1nc(Nc2ccc(F)cc2)sc1C(=O)Nc1ccc(F)cc1F', 'Human recombinant SIRT6 (Homo sapiens)', '% activity 100 uM', '22%'),
  ('Cc1nc(-c2cccc(C(F)(F)F)c2)c(N)c(N(C)C2CCN(C)CC2)n1', 'Human recombinant SIRT6 (Homo sapiens)', '% activity 100 uM', '255%'),
  ('O=c1cc(O)c2sc3nc4c(cc3c2[nH]1)CCCCC4', 'Human recombinant SIRT6 (Homo sapiens)', '% activity 100 uM', '75%'),
  ('COc1ccc(-c2nn3c(C)nnc3s2)cc1N', 'Human recombinant SIRT6 (Homo sapiens)', '% activity 100 uM', '18%'),
  ('Cc1cc(Nc2ccc(NC(=O)Nc3ccc4c(c3)CCCO4)cc2)nc(NC2CCCCC2)n1', 'Human recombinant SIRT6 (Homo sapiens)', '% activity 100 uM', '22%'),
  ('C=C1Nc2nc(OC(C)=O)c(C)c(C)c2S1', 'Human recombinant SIRT6 (Homo sapiens)', '% activity 100 uM', '197%'),
  ('O=C(Nc1ccc2nnc(C3CCC3)n2c1)C1CC1', 'Human recombinant SIRT6 (Homo sapiens)', '% activity 100 uM', '142%'),
  ('C=C(NCCC)c1ccc(-c2ccc(N3CCCCC3)nc2)cc1', 'Human recombinant SIRT6 (Homo sapiens)', '% activity 100 uM', '50%'),
  ('C=C(CS)Nc1ccc(CCCCC)cc1', 'Human recombinant SIRT6 (Homo sapiens)', '% activity 100 uM', '48%'),
  ('C=S(=O)(C1=CC=C(c2ccc(N3CCCCC3)nn2)C1)N1CCCC(C(=O)OCC)C1 (stereo not shown)', 'Human recombinant SIRT6 (Homo sapiens)', '% activity 100 uM', '52%'),
  ('Cc1noc(-c2cccc(OC3CN(C(=O)c4cccc5[nH]ccc45)C3)c2)n1', 'Human recombinant SIRT6 (Homo sapiens)', '% activity 100 uM', '47%'),
  ('N#Cc1cccc(-c2cn3c(n2)N(C(=O)c2ccncc2)CCC3)c1', 'Human recombinant SIRT6 (Homo sapiens)', '% activity 100 uM', '45%'),
  ('CCCC1(CO)CCCN1C(=O)c1ccc2cc[nH]c2c1 (stereo not shown)', 'Human recombinant SIRT6 (Homo sapiens)', '% activity 100 uM', '53%'),
  ('O=C1Nc2ccc(Cl)cc2C(c2ccccc2)C1Nc1ccc(Oc2ccccc2)cc1 (stereo not shown)', 'Human recombinant SIRT6 (Homo sapiens)', '% activity 100 uM', '86%'),
  ('C=C(C)C1Cc2cc(C(F)(F)F)ccc2N2CCCCC12 (stereo not shown)', 'Human recombinant SIRT6 (Homo sapiens)', '% activity 100 uM', '175%'),
  ('O=C(NCc1cccc(Cl)c1)c1noc2c1CSc1ccccc1-2', 'Human recombinant SIRT6 (Homo sapiens)', '% activity 100 uM', '137%'),
  ('C=C(CN1c2ccccc2C(C)(C)C12C=Cc1c(ccc3ccccc13)C2)NC (stereo not shown)', 'Human recombinant SIRT6 (Homo sapiens)', '% activity 100 uM', '27%'),
  ('C=C1Oc2ccc(C)cc2-c2oc(NCCOC)c(-c3ccc(OCC)cc3)c21', 'Human recombinant SIRT6 (Homo sapiens)', '% activity 100 uM', '226%'),
  ('CC1=CC(C)(C)Nc2ccc(OC(=O)c3cccs3)cc21', 'Human recombinant SIRT6 (Homo sapiens)', '% activity 100 uM', '54%'),
  ('C=C1Cc2c(cccc2CC)C=C1C1=CCC(NC(=O)CCC(=O)NCCCN2CCC(C)CC2)=N1', 'Human recombinant SIRT6 (Homo sapiens)', '% activity 100 uM', '35%'),
  ('Cc1nc(-c2cccc(F)c2)c(N)c(N(C)C2CCN(C)CC2)n1', 'Human recombinant SIRT6 (Homo sapiens)', '% activity 100 uM', '210%'),
  ('C=C(NCCN1CCN(C)CC1)c1cc(-c2ccc(NC(C)=O)cc2)nc2ccc(C)cc12', 'Human recombinant SIRT6 (Homo sapiens)', '% activity 100 uM', '119%'),
  ('Cc1ccc(NC(=O)c2nnc(-c3ccc(NC(=O)c4cccs4)cc3)s2)cc1', 'Human recombinant SIRT6 (Homo sapiens)', '% activity 100 uM', '16%'),
  ('CCC(=O)Nc1ccc(-c2cc(C(=O)NCCCN3CCCCC3C)c3ccccc3n2)cc1 (stereo not shown)', 'Human recombinant SIRT6 (Homo sapiens)', '% activity 100 uM', '110%'),
  ('CCc1nnc(NC(=O)CSc2nc(N)nc(SC)c2C#N)s1', 'Human recombinant SIRT6 (Homo sapiens)', '% activity 100 uM', '25%'),
  ('Cn1c(-c2ccc3[nH]c(-c4ccc(N)cc4)nc3c2)nc2cc(N)ccc21', 'Human recombinant SIRT6 (Homo sapiens)', '% activity 100 uM', '162%'),
  ('C=C(CC)Nc1ccc(-c2cc(C(=O)NCCCN3CCCCCC3)c3ccccc3n2)cc1', 'Human recombinant SIRT6 (Homo sapiens)', '% activity 100 uM', '92%'),
  ('COc1cc(NC(=O)c2csc(-c3cn(C)c4ncccc34)n2)cc(OC)c1', 'Human recombinant SIRT6 (Homo sapiens)', '% activity 100 uM', '37%'),
  ('C=C(Nc1ccc(Cl)cc1)N1c2ccc(OCC)cc2C(C)=CC1(C)C', 'Human recombinant SIRT6 (Homo sapiens)', '% activity 100 uM', '46%'),
  ('Cc1ccc(Nc2nc(C)c(C(=O)Nc3cccc(C(C)C)c3)s2)cc1', 'Human recombinant SIRT6 (Homo sapiens)', '% activity 100 uM', '11%'),
  ('C=C1N(C)C(=O)c2c(nc3n2CC(c2ccc(Br)cc2)=NN3)N1C', 'Human recombinant SIRT6 (Homo sapiens)', '% activity 100 uM', '99%'),
  ('COc1ccc(-c2csc3c(NN)ncnc23)cc1', 'Human recombinant SIRT6 (Homo sapiens)', '% activity 100 uM', '22%'),
  ('O=C(c1ccc(-c2ccc(N3CCCCC3)nc2)cc1)N1CCCC1', 'Human recombinant SIRT6 (Homo sapiens)', '% activity 100 uM', '75%');

====

Target: Human recombinant SIRT6 (Homo sapiens, UniProt Q8N6T7)
Construct: six-histidine (His6); made in house; host or cells: Escherichia coli BL21
Sequence (Q8N6T7 whole entry): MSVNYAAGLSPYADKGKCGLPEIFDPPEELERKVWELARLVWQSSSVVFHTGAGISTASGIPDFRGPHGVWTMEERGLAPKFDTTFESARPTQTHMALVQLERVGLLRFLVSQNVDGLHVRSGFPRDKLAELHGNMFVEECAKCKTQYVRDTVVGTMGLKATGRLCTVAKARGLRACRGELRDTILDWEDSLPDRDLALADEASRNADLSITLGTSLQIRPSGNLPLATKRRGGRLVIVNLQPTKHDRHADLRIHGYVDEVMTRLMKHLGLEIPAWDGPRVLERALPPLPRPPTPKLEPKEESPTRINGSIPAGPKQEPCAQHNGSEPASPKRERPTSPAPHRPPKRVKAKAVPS
Experiment: SIRT6 enzymatic activity assay (fluorogenic de-myristoylation of histone H3 peptide-AMC, trypsin-coupled)
Assay type: biochemical
Conditions: Table 2; compound 100 uM; percentage of signal increase relative to control wells
measured attribute: % activity 100 uM (%)

INSERT INTO assay_data (cpd_smiles, measured_attribute, unit_spec, data_value) VALUES
  ('C=C(Oc1ccc2cnccc2c1)C1=C(N)c2ccccc2C1', '% activity 100 uM', '%', 324),
  ('C=C(c1ccc(-c2nc3ccccc3n(CC(C)C)c2=O)cc1)N1CCN(c2ccccc2)CC1', '% activity 100 uM', '%', 56),
  ('C=C1Cc2cc(C)cc(CC(=O)[C@@H](NS(=C)(=C)c3ccc(C)cc3)[C@H](C)CC)c2C2=C1CCC2', '% activity 100 uM', '%', 113),
  ('Cc1cc(NC(=O)CSc2nnc(-c3sc4ncccc4c3N)n2C)ccc1Cl', '% activity 100 uM', '%', 47);

====

% activity 20 uM reference
Molecular target: Human recombinant SIRT6 (Homo sapiens)
Construct: six-histidine (His6); made in house; host or cells: Escherichia coli BL21
Assay: SIRT6 enzymatic activity assay (fluorogenic de-myristoylation of histone H3 peptide-AMC, trypsin-coupled)
Format: biochemical
Conditions: Table 2; compound 20 uM; percentage of signal increase relative to control wells
Description: Human recombinant SIRT6 (sequence identifier: CAG33481.1; GI:4814651) was expressed in large scale in Escherichia coli strain BL21 as a six-histidine-tagged protein, after transformation of the expression plasmid pET28-SIRT6. The SIRT6 enzyme was purified from the bacteria culture broth in a two-step strategy. The first purification step was carried out by cation exchange chromatography on a HiTrap CM-Sepharose column (GE Healthcare) using an FPLC system. […]
measured attribute: % activity 20 uM

INSERT INTO results (compound, data_value) VALUES
  ('O=C(Nc1ccc2nncn2c1)c1cccc(Cl)c1', '30%'),
  ('C=C(CN1c2ccccc2C(C)(C)C12C=Cc1c(ccc3ccccc13)C2)NC (stereo not shown)', '25%'),
  ('Cc1nc(Nc2ccc(F)cc2)sc1C(=O)Nc1ccc(F)cc1F', '36%'),
  ('C=C(NCCN1CCN(C)CC1)c1cc(-c2ccc(NC(C)=O)cc2)nc2ccc(C)cc12', '96%'),
  ('C=C(CS)Nc1ccc(CCCCC)cc1', '22%'),
  ('C=C(Cc1ccc2c(c1)C(C)=CC(C)(C)N2)Cc1cccc2ccccc12', '29%'),
  ('Cc1nc(-c2cccc(F)c2)c(N)c(N(C)C2CCN(C)CC2)n1', '50%'),
  ('Cc1cc(Nc2ccc(NC(=O)Nc3ccc4c(c3)CCCO4)cc2)nc(NC2CCCCC2)n1', '26%'),
  ('C=C(Nc1ccc(CC)c(Cl)c1)c1cc(N)cc2cn[nH]c12', '45%'),
  ('C=C(CN1C(=C)C(c2nc(-c3ccccc3)no2)=C(C)C=C1C)NC1CCCCC1', '53%'),
  ('C=C1Cc2ccc(C)cc2C2=C1C(c1ccc(F)cc1)=C(NCCOC)C2', '134%'),
  ('CC(C)(C)c1ccc(C(=O)Nc2ccc3nnc(C4CCC4)n3c2)cc1', '23%'),
  ('Cc1ccc(Nc2nc(C)c(C(=O)Nc3cccc(C(C)C)c3)s2)cc1', '31%');
